measuredOn: atypical chemokine receptor ACKR3 (formerly CXCR7) (human, UniProt P25106 1-362)
Sequence (P25106 whole entry): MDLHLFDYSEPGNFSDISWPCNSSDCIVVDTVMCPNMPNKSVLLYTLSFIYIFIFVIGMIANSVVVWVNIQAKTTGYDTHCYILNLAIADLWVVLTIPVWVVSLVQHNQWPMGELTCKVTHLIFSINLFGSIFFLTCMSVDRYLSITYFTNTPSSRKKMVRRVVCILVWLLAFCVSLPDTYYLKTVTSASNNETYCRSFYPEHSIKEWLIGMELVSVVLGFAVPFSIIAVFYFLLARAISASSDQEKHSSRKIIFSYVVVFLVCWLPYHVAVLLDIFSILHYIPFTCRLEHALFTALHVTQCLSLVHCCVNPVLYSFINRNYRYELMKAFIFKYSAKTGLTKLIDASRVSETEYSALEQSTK
assayProcedure: flow cytometry on cells
No end group written: not given here.
parameter: EC50
Enter the number, and then the unit.

I'd like to know its EC50. The binder in question is FGGFMRRK(Cy5) [LIH383-Cy5]
6.65 nM
